- Tested on: Enterococcus faecalis Bact. 4025
- Assay type: cell-based
- MEASUREMENT_CONTEXT: E. faecalis; antibiotic disc with 1 mM nerolidol (N) in agar overlay
Reported Diameters of zones of inhibition by item:

MOLECULAR_STRING	Diameters of zones of inhibition
CC[C@H]1OC(=O)[C@H](C)[C@@H](O[C@H]2C[C@@](C)(OC)[C@@H](O)[C@H](C)O2)[C@H](C)[C@@H](O[C@@H]2O[C@H](C)C[C@H](N(C)C)[C@H]2O)[C@](C)(O)C[C@@H](C)C(=O)[C@H](C)[C@@H](O)[C@]1(C)O	19.5 millimeters
CN[C@H](CC(C)C)C(=O)N[C@H]1C(=O)N[C@@H](CC(N)=O)C(=O)N[C@H]2C(=O)N[C@H]3C(=O)N[C@H](C(=O)N[C@H](C(=O)O)c4cc(O)cc(O)c4-c4cc3ccc4O)[C@H](O)c3ccc(c(Cl)c3)Oc3cc2cc(c3O[C@@H]2O[C@H](CO)[C@@H](O)[C@H](O)[C@H]2O[C@H]2C[C@](C)(N)[C@H](O)[C@H](C)O2)Oc2ccc(cc2Cl)[C@H]1O	18 millimeters
CN(C)[C@@H]1C(O)=C(C(N)=O)C(=O)[C@@]2(O)C(O)=C3C(=O)c4c(O)cccc4[C@@](C)(O)[C@H]3C[C@@H]12	23.5 millimeters

Query compound follows.
For the compound "CCC[C@@H]1C[C@@H](C(=O)N[C@@H]([C@H]2O[C@H](SC)[C@H](O)[C@@H](O)[C@H]2O)[C@H](C)Cl)N(C)C1" , what Diameters of zones of inhibition is on record?
11 millimeters
